# System: HCC-2998 colon
# procedureSummary: NCI tumour cell line growth inhibition, 48 h

- molecule: "COc1ccc(/C=C/C(=O)c2sc(NC(=S)NC(=O)c3ccccc3F)nc2C)cc1OC"
  TGI: "> 100 µM"
- molecule: "CC(=O)OCC1OC(n2c(-c3cccs3)c3c(c(C#N)c2=S)-c2ccccc2CC3)C(OC(C)=O)C(OC(C)=O)C1OC(C)=O (stereo not given)"
  TGI: "33.5 µM"
- molecule: "CN1CCN(CC(=O)Nc2cccc3ccccc23)CC1"
  TGI: "> 100 µM"
- molecule: "CC(C)C(=O)N1C(=O)O[C@@H](c2ccccc2)[C@H]1C"
  TGI: "> 100 µM"
- molecule: "CC(=O)OC/C=C(\\C)CCC(Br)C(C)(C)Br (stereo not given)"
  TGI: "> 10 µM"
